Reference source for all entries: PubChem BioAssay AID1963870

Test system: 292921-168-R-J2-PDC KRAS tumor spheroid viability;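 further: drug exposure lasted seven days after spheroids formed for three days; percent of DMSO vehicle control viability which is 100%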
Experiment: Anticancer human tumor 292921-168-R-J2-PDC patient-derived pancreatic carcinoma cell line growth inhibition [KRAS2]
Conditions: second compound 1 µM; first compound 0.1 µM; active compounds read low; spheroids with HUVEC and MSC
Source text: Multicellular complex tumor spheroid response to RAS pathway inhibitors in combination with a targeted agents in patient-derived cell lines with oncogenic KRAS variants from multiple cancer types A high-throughput screen of multi-cell type tumor spheroids was designed to identify active combinations of targeted small molecules and KRAS pathway inhibitors. […] Compounds. […] If the clinical Cmax for an agent had not been determined, the highest concentration tested was 10 microM. […]
measuredAttribute: viability, T/C

Example entries and their recorded answers appear below.
# compound, viability, T/C
measured = [
    ("COC(=O)c1ccc2c(C(=Nc3ccc(N(C)C(=O)CN4CCN(C)CC4)cc3)c3ccccc3)c(O)[nH]c2c1 + C=CC(=O)N1CCN(c2nc(OCC3CCCN3C)nc3c2CCN(c2cccc4cccc(C)c24)C3)CC1CC#N", "16.4%"),
    ("COC(=O)c1ccc2c(C(=Nc3ccc(N(C)C(=O)CN4CCN(C)CC4)cc3)c3ccccc3)c(O)[nH]c2c1 + COc1cc2nc(C)nc(NC(C)c3cc(N)cc(C(F)(F)F)c3)c2cc1OC1CCOC1", "97.5%"),
    ("Cn1ncnc1[C@H]1c2n[nH]c(=O)c3cc(F)cc(c23)N[C@@H]1c1ccc(F)cc1 + COc1cc2nc(C)nc(NC(C)c3cc(N)cc(C(F)(F)F)c3)c2cc1OC1CCOC1", "57.4%"),
    ("CC(C)n1nc(-c2ccc3oc(N)nc3c2)c2c(N)ncnc21 + CC1OCC2(CCN(c3cnc(Sc4ccnc(N)c4Cl)c(N)n3)CC2)C1N", "14.5%"),
]

Consider now this further compound.
Request the reported viability, T/C associated with CC(C)NCC(C(=O)N1CCN(c2ncnc3c2C(C)CC3O)CC1)c1ccc(Cl)cc1 (stereo not given) + C=CC(=O)N1CCN(c2nc(=O)n(-c3c(C)ccnc3C(C)C)c3nc(-c4c(O)cccc4F)c(F)cc23)C(C)C1
82.3%
